Data provenance is paper PMC2174402.

assayed_system: human estrogen receptor (ER) (Homo sapiens, UniProt P03372)
Sequence (P03372 whole entry): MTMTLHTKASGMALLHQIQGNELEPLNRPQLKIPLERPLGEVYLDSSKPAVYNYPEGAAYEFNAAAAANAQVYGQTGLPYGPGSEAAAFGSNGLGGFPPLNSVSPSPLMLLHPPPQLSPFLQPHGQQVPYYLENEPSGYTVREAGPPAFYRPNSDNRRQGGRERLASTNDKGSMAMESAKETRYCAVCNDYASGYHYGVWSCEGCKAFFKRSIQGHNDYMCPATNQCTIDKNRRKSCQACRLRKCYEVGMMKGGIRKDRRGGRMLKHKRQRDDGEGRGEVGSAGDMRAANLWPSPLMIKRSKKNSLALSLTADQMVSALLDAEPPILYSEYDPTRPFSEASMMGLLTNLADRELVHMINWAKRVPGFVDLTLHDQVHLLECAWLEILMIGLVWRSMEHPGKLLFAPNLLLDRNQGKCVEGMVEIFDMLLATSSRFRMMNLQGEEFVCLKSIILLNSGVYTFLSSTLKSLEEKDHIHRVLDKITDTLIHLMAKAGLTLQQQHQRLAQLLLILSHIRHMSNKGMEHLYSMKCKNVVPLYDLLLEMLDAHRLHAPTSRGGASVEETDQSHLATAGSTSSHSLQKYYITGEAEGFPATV
run_description: cell-based
measure_name: EC50 (µM)
Could you give me the number in µM? Just the number is fine.

May I ask what EC50 has been recorded for `CCCCCCCCCc1ccc(O)cc1` ?
8.9

====

assayed_system: UniProt:P11511
run_description: Aromatase activity in JEG-3 choriocarcinoma cells
measure_name: IC50 (nM)
Could you give me the number in nM? Just the number is fine.

May I ask what IC50 has been recorded for C[C@]12CCC(=O)C(O)=C1CC[C@@H]1[C@@H]2CC[C@]2(C)C(=O)CC[C@@H]12 [4-AOD, 4-androsten-4-ol-3,17-dione, reference compound] ?
6

====

assayed_system: aromatase (CYP19) (Homo sapiens, UniProt P11511)
Sequence (P11511 whole entry): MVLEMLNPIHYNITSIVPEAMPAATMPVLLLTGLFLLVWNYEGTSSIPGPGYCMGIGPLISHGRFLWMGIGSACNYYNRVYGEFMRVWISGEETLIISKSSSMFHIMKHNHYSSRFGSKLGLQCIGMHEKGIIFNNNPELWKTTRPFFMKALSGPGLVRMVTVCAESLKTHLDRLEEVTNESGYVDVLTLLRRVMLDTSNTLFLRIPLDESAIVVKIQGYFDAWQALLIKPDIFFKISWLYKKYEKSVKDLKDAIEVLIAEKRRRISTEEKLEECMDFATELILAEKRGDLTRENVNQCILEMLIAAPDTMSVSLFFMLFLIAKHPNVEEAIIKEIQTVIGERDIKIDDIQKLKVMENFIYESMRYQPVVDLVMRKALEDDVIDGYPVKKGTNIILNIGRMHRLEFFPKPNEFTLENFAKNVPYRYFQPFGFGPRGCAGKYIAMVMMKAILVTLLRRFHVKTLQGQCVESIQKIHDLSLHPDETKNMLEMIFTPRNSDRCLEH
run_description: Aromatase activity in JEG-3 choriocarcinoma cells
measure_name: pEC50
Scale explanation: pEC50 corresponds to minus log10 of a concentration expressed in moles per litre.

May I ask what pEC50 has been recorded for C[C@]12CCC(=O)C(O)=C1CC[C@@H]1[C@@H]2CC[C@]2(C)C(=O)CC[C@@H]12 [4-AOD, 4-androsten-4-ol-3,17-dione, reference compound] ?
8.22
